Target: T1, human Ang-2 (human, UniProt O15123)
T1 chain: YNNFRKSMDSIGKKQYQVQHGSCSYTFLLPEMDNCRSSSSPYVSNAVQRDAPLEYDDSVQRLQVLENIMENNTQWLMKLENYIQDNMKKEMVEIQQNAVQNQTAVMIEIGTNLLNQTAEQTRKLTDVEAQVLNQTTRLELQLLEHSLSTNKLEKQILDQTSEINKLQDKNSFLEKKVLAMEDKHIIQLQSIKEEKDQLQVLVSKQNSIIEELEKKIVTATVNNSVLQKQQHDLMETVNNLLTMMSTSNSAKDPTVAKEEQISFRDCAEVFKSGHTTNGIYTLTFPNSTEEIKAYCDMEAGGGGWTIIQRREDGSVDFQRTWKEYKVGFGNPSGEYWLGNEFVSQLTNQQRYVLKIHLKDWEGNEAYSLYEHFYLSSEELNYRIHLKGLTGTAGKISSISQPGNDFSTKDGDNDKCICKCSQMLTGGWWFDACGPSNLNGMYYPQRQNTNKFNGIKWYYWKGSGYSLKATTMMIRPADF
Test: competition ELISA vs Tie-2
Where no end group is shown, it is not given here. [ ]: non-standard residue; d: D form. Fc = immunoglobulin Fc domain fused to the peptide (peptibody)
# key: entry, value: IC50
Write the number in nM without appending the unit.

M[Fc]GGGGGAQQEECEWDPWTCEHMLE (not fully specified (bridges); printed as M-Fc-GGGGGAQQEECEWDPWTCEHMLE; cysteine pairing not given here; also: Fc fusion domain at position 2) [Con4 (C)]
0.2

// next entry
In one line, give reported IC50 of the entry MGAQHQICKWDPWTCKHWLEGGGGGX (not fully specified (C-terminus, bridges); printed as MGAQ-HQICKWDPWTCKHWLEGGGGG-Fc; cysteine pairing not given here) [TN8-14 (N)] .
45
